Measured growth inhibition by item
Test: NCI Yeast Anticancer Drug Screen. Data for the mlh1 rad18 strain (AID 175)
Details: S. cerevisiae mlh1 rad18 strain growth inhibition; at 50.0 µM; hits give high values
Compounds without any hit were thinned out: in the full panel of roughly 79,000, 15% have a hit.

compound	unit_abbreviation	growth inhibition
COC1CC(C)OC(OC2C(C)/C=C/C(=O)OC(C)C(COC3OC(C)C(O)C(OC)C3OC)C3OC3/C=C/C(=O)C(C)(O)CC2C)C1O (stereo not given)	%	5
O=c1[nH]c(-c2cccnc2)nnc1-c1ccc(Cl)cc1	%	4.2
CCN(CC)c1ccc2cc(C(=O)Nc3nc(C45CC6CC(CC(C6)C4)C5)cs3)c(=O)oc2c1	%	-16.1
C[C@]12CC[C@H](OC3CCCCO3)CC1=CC[C@@H]1C2CC[C@]2(C)/C(=N/OCCC#N)CCC12 (stereo not given in full)	%	28.1
CC(C)(Cc1ccccc1)NC1=NCCO1	%	-2.6
CN1C(C)(C)CC(O)(C(O)(c2ccccc2)c2ccccc2)CC1(C)C	%	3.7
Cc1ccc(S(=O)(=O)c2ccc(C)cc2[N+](=O)[O-])cc1	%	-9.75
CCCCC(=O)Nc1ccc(S(=O)(=O)O)c(N=NC2C(=O)N(c3ccccc3)N=C2C)c1 (stereo not given)	%	15
O=C(O)c1c2c(cc3c(=O)c4ccccc4[nH]c13)CCCC2	%	5.2
Oc1ccc(OCc2ccccc2)cc1CN1CCOCC1	%	34.5
CCCCCC(O)(CCCC)CCCC	%	-1.15
Cc1ccc(NC(=O)CCCC(=O)C(C#N)c2ccccc2Cl)cc1C (stereo not given)	%	-5.1
CC1=C(C)CC2C(=O)C=CC(=O)C2C1 (stereo not given)	%	-6.9
C(=N\N1CCN(/N=C/c2ccc3ccccc3n2)CC1)/c1ccc2ccccc2n1	%	32.4
CC(C)CCC[C@@H](C)[C@H]1CC[C@H]2[C@@H]3CC[C@H]4C[C@H](N[C@@H]5CC[C@@]6(C)[C@@H](CC[C@@H]7[C@@H]6CC[C@]6(C)[C@@H]([C@H](C)CCCC(C)C)CC[C@@H]76)C5)CC[C@]4(C)[C@H]3CC[C@]12C	%	36.7
O=C1NC(=S)N(c2ccccc2)C1=O	%	-11.8
Cn1c(N2CCCC2)c(C=O)c(=O)n(C)c1=O	%	-15.1
N#Cc1c(N)c(C(=O)O)nn(-c2cccc(C(F)(F)F)c2)c1=O	%	-15.9
O=[N+]([O-])c1ccc(N=C(Nc2ccc([N+](=O)[O-])cc2)c2ccccc2)cc1	%	-14.5
Cc1cc(C)nc(NC(=O)c2cc(C(=O)O)c(C(=O)Nc3cc(C)cc(C)n3)cc2C(=O)O)c1	%	-23.9

---

Experiment: NCI Yeast Anticancer Drug Screen. Data for the mlh1 rad18 strain (AID 175)
Details: S. cerevisiae mlh1 rad18 strain growth inhibition; at 50.0 µM; hits give high values
Compounds without any hit were thinned out: in the full panel of roughly 79,000, 15% have a hit. Activity calls are given as the source filed them. No stated cut-off is given here; in the data, active means growth inhibition above about 70%; inactive means the rest.
Below, each entry is listed with its recorded growth inhibition.
metric: growth inhibition

molecule	result
COc1cc(/C=C2\C=Cc3ccccc32)ccc1N(C)C	-15.5% (inactive)
COc1ccc(C(=CCC(C)C2CCC3[C@@H]4C(OC(C)=O)CC5CC(OC(C)=O)CC[C@]5(C)C4CC(OC(C)=O)[C@]23C)c2ccc(OC)cc2)cc1 (some centres not stated)	-6.05% (inactive)
O=C1C(/C=N\C(=S)NCc2ccccc2)=C(O)c2ccccc21	-7.05% (inactive)
ClCCCCOC1CCCCO1 (configuration not stated)	-29.8% (inactive)
CCOC#CCCOCc1ccccc1	-16.6% (inactive)
O=C(CC(=O)c1ccccc1)Nc1cccnc1	-6.95% (inactive)
COc1ccc(C(=C(I)c2ccccc2)c2ccc(OC)cc2)cc1	-18.9% (inactive)

---

Experiment: NCI Yeast Anticancer Drug Screen. Data for the cln2 rad14 strain (AID 165);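 also: 0% = growth equal to vehicle treated cultures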
Conditions: S. cerevisiae cln2 rad14 strain, at 50.0 µM
Compounds without any hit were thinned out: in the full panel of roughly 79,000, 15% have a hit. The source made the active and inactive calls. Rule as the data show it: active = growth inhibition above about 70%; inactive = the rest.
Classes used: T for active, F for inactive

compound	label_class
COc1ccc2nccc(C)c2c1	F
CCCCOCCOCCOC(=O)c1ccc(C)cc1	F
Cc1cc2c(cc1C)C(=O)c1ccccc1C2=O	F
CN1CN(c2ccccc2)C2(CCN(c3nc4ccccc4s3)CC2)C1=O	F
c1ccc(SSc2ccc3ccccc3c2)cc1	F
COC(C(=O)C(O)C(C)O)C1CC2C=C3C=C(OC4CC(OC5CC(O)C(OC)C(C)O5)C(OC(C)=O)C(C)O4)C(C)C(=O)C3=C(O)C2=C(O)C1OC1CC(OC2CC(OC3CC(C)(O)C(OC(=O)C(C)C)C(C)O3)C(O)C(C)O2)C(O)C(C)O1 (stereo not drawn)	T
CCOC(CN(C)C(=S)Nc1cccc2ccccc12)OCC	F
CCOC(=O)c1cn(CC)c2ccc3ccsc3c2c1=O	F
CC(CCC(=O)O)[C@H]1CCC2[C@@H]3CC[C@@H]4CC(O)CC[C@]4(C)C3CC[C@@]21C (stereo partly drawn)	F
CCCCCCCCCCCCCCCC[N+](C)(C)CC#CCCl	T
O=NN(C(=O)NCCCl)c1[nH]c(=O)ncc1Br	F
CCOC(=O)c1nc(N)c2c(CC#N)nn(C)c2n1	F
CCOc1ccccc1NC(=O)C(=O)c1c(O)c2ccc(O)cc2oc1=O	F
CCOc1ccc(/C=C2\N=C(c3ccc([N+](=O)[O-])cc3)OC2=O)cc1	F
O=C1Oc2ccccc2C(=O)Oc2ccccc2C(=O)Oc2ccccc2C(=O)Oc2ccccc21	F
COc1cc(/C=C2/Cc3ccccc3C2=O)ccc1O	F
NC(Cc1cccnn1)C(=O)O (stereo not drawn)	F
Cc1ccccc1NC(=O)Nc1ccccc1C	F
Cc1ccc(-n2c(C)n[nH]c2=O)cc1	F
N#Cc1ccccc1N=Nc1nc(N)c(C(N)=O)[nH]1	F
CCCCNC(C)=O	F
O=S(=O)(c1ccc(O)c(Cl)c1)c1ccc(O)c(Cl)c1	F
CC(C)CCC(C)(C)COC(=O)c1ccc([N+](=O)[O-])cc1 (tested in a mixture with another compound)	F

---

Measured growth inhibition, listed per entry.
Assay: NCI Yeast Anticancer Drug Screen. Data for the cln2 rad14 strain (AID 165);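 also: 0% = growth equal to vehicle treated cultures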
Details: S. cerevisiae cln2 rad14 strain, at 50.0 µM, hits give high values
About 79,000 compounds went through this panel and 15% of them were active in at least one assay; those are over-represented in the sample as a whole.
metric: growth inhibition (%)

> print(dat)
                                    molecule             metric  unit.abbreviation  numeric.result
 1          c1ccc(N=C2NNC(=Nc3ccccc3)NN2)cc1  growth inhibition                  %            1.85
 2  c1ccc(-c2nnc(-c3ccccn3)c3c2C[C@@H]2C[C@@H]4Cc5c(-c6ccccn6)nnc(-c6ccccn6)c5[C@@H]4[C@H]32)nc1  growth inhibition                  %            9.25
 3          CCCCCCCCCCCCCCCCCCOC(=O)c1cccnc1  growth inhibition                  %            20.7
 4  O=[N+]([O-])c1ccc2c(ccn2C2OCC(O)C(O)C2O)c1 (stereo not drawn)  growth inhibition                  %           -3.55
 5                O=C(O)CC(=O)CC(=O)c1ccccc1  growth inhibition                  %           -30.7
 6           OC(Cc1cccnc1)(c1ccccc1)c1ccccc1  growth inhibition                  %           -21.5
 7                  COc1ccc(CCc2nccn2C)cc1OC  growth inhibition                  %           -16.4
 8        CCn1c2ccccc2c2ccc(N=Nc3ccccc3)cc21  growth inhibition                  %           -1.75
 9  CCC(O)(c1ccccc1)C(OC)c1ccccc1 (stereo not drawn)  growth inhibition                  %            7.25
10          O=C(NNC(=O)c1ccccc1Br)c1ccccc1Br  growth inhibition                  %            0.45
11       O=C(Nc1ccc(Cl)cc1)OCCSc1nc2ccccc2s1  growth inhibition                  %            9.35
12            COc1ccc(/C=C/C(=O)c2ccccc2)cc1  growth inhibition                  %            2.25
13  O=C(/C(=C/c1ccccc1)N1CCOCC1)c1cccc2ccccc12  growth inhibition                  %            14.7
14  O=c1[nH]c(-c2ccc(-c3nc4cc([N+](=O)[O-])ccc4c(=O)[nH]3)cc2)nc2cc([N+](=O)[O-])ccc12  growth inhibition                  %            -6.9
15               CCNC(=S)NCCc1c[nH]c2ccccc12  growth inhibition                  %            -0.4
16                    Nc1nc(N)nc(-c2ccco2)n1  growth inhibition                  %           -81.8
17                O=S(=O)(O)SCCNCCCCc1ccccc1  growth inhibition                  %           -5.35
18                 O=c1[nH]c(=O)c2nnoc2[nH]1  growth inhibition                  %           -20.2
19  CC(NC(=O)N=Nc1ccccc1)C(=O)O (stereo not drawn)  growth inhibition                  %             -39
20                    CCC(=O)Nc1cccc2ccccc12  growth inhibition                  %           -92.4
21  CC1CCCCCN1CCC(=O)c1ccccc1 (stereo not drawn)  growth inhibition                  %            19.2
22  [N-]=[N+]=Nc1cc(=O)n(-c2ccccc2)c(=O)n1-c1ccccc1  growth inhibition                  %            21.6
23                  CCCOC(=O)Nc1cccc2ccccc12  growth inhibition                  %           -62.4
24  CC(=O)NC1c2ccccc2C(C)(C)C12CCC1(CC2)OCCO1 (stereo not drawn)  growth inhibition                  %            0.05
25  O=c1[nH]c2cc3[nH]c(=O)c(=O)[nH]c3cc2[nH]c1=O  growth inhibition                  %            8.85
26  Nc1c(N=Nc2ccccc2)cc(S(=O)(=O)O)c2ccccc12  growth inhibition                  %            6.65
27  O=C1/C(=C/c2ccccc2)CN(C(=O)OCC(Cl)(Cl)Cl)C/C1=C\c1ccccc1  growth inhibition                  %             4.9
28             N#C/C(N)=C(\C#N)NC=NCc1ccccc1  growth inhibition                  %             2.3
29  CC(C)CCCC(C)C1CCC2C3CCC4=CCCCC4(C)C3CCC12C (stereo not drawn)  growth inhibition                  %            33.1
30        CC1CCC(C)C(O)C1 (stereo not drawn)  growth inhibition                  %            23.1
31  CCc1nc(N)nc(N)c1-c1ccc(NC(C)c2ccccc2)c([N+](=O)[O-])c1 (stereo not drawn)  growth inhibition                  %            -1.1
32  O=C1/C(=C/c2ccc(O)cc2)CCC1CNc1ccc(Cl)cc1 (stereo not drawn)  growth inhibition                  %            18.1
33  Cc1c(Cl)cccc1NC(=O)C(=O)C1C(=O)CC(C)(C)CC1=O  growth inhibition                  %            7.85
34   C/C(=N\N=C(\Cc1ccccc1)c1ccccc1)c1ccccc1  growth inhibition                  %           -25.2
35  CC(=O)NNc1nc(C)c(C(=O)NNC(=O)C(=O)Nc2c(C)cccc2C(C)(C)C)s1  growth inhibition                  %            32.5
36             On1ccc(N2CCOCC2)cc1=NC1CCCCC1  growth inhibition                  %            17.6
37                   CN(C)C(=S)/N=C(\N)N(C)C  growth inhibition                  %           -0.45
38                             C=C(CBr)CCCCC  growth inhibition                  %            14.1
39  COc1cc2c(C)cc(=O)oc2c(OCC(O)CN2CCCC2)c1OC (stereo not drawn)  growth inhibition                  %            1.35
40           CCCCOCCOCCOS(=O)(=O)c1ccc(C)cc1  growth inhibition                  %               5
41  O=C(Nc1cc(S(=O)(=O)O)cc2cc(S(=O)(=O)O)c(N=Nc3cc(Nc4nc(Cl)nc(Nc5ccc(S(=O)(=O)O)cc5)n4)ccc3S(=O)(=O)O)c(O)c12)c1ccccc1  growth inhibition                  %             3.5
42  CC1(C)OCC(C(OC(=O)c2ccc([N+](=O)[O-])cc2)C(OC(=O)c2ccc([N+](=O)[O-])cc2)C2COC(C)(C)O2)O1 (stereo not drawn)  growth inhibition                  %            41.2
43  Cc1c(-c2nc3ccccc3[nH]2)c(=O)n(-c2ccccc2)n1C  growth inhibition                  %            7.25
44                        CC(=O)CC(=O)NN(C)C  growth inhibition                  %             8.5
45  O=C(O)c1c(Br)c(Br)c(Br)c(Br)c1C(=O)Nc1ccc(Cl)cc1C(F)(F)F  growth inhibition                  %           -6.55
46    CC/C(C)=N/NC(=O)c1ccc([N+](=O)[O-])cc1  growth inhibition                  %             8.6
47  CN1CCN(CCNNCCN2CCCC(O)C2)CC1 (stereo not drawn)  growth inhibition                  %           -6.05
48                          Nc1ccc(Br)c(N)c1  growth inhibition                  %           -16.9
